compounds and their reported activity change, negative = cytotoxicity
assay: Cell Viability - NIH 3T3 (AID 541); conditions: NIH 3T3 cell viability, qHTS; at 92.2 µM (top of the series);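 also: cells exposed to compound for 40 hours; plate controls were DMSO alone for no effect and tamoxifen positive control for full effect; nearly all actives have a fitted effect of over 25% in size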
Results filed as inconclusive are left out.
Just the number please, in %, no unit attached.

[[record]]
compound = "C/C(Cl)=C/CCl"
units_of_measure = "%"
meas_value = -23.5


Look up activity change, negative = cytotoxicity: CCC(Cl)CC(Cl)C(Cl)C(Cl)C(Cl)C(C)Cl (stereo unspecified)
-16.5

Please look up its activity change, negative = cytotoxicity: `Cc1c(N)cccc1Cl`
-0.783

I would be grateful if you could share the reported activity change, negative = cytotoxicity for `CCN(CC)c1ccc(N)cc1` .
-96.6

Given `Nc1cc(C(=O)O)c(O)c(S(=O)(=O)O)c1` , state its recorded activity change, negative = cytotoxicity.
-24.6

# lookup: activity change, negative = cytotoxicity of `c1ccc(CSCc2ccccc2)cc1`
-18.8

Given the compound `CC(C)S` , what is its reported activity change, negative = cytotoxicity?
-8.42

---

test: qHTS Assay for Inhibitors of Fructose-1,6-bisphosphate Aldolase from Giardia Lamblia: Coupling assay counterscreen confirmation (AID 2795); settings: GAPDH coupling enzyme counterscreen, biochemical; series mostly up to 57.5 µM; also: % is scaled to controls: 0 for no effect and ±100 for the full control effect; nearly all actives have a fitted effect of over 55% in size
This is one part of the list. Results filed as inconclusive are left out. The source made the active and inactive calls. Calls come from the whole dose curve; as a rule, active = well fitted inhibition curve with a large enough effect; inconclusive = small, poorly fitted or top-dose-only effect; inactive = flat fitted curve, though single readings scatter.
readout-name: outcome

Here are 4 compounds together with their reported answers.
[[record]]
compound = "COCCN(C(=S)Nc1ccccc1OC)C1CCN(C(C)C)CC1"
readout_name = "outcome"
meas_value = "inactive"

[[record]]
compound = "CCS(=O)(=O)c1cc([N+](=O)[O-])c(Sc2ccccc2N)s1"
readout_name = "outcome"
meas_value = "inactive"

[[record]]
compound = "CCc1ccc2c(c1)C1(NN=C(c3ccccc3)S1)C(=O)N2 (stereo not given)"
readout_name = "outcome"
meas_value = "inactive"

[[record]]
compound = "Cc1cccc(-c2nnc(SCC(=O)O)n2Cc2ccccc2)c1"
readout_name = "outcome"
meas_value = "inactive"


If you can, please state the reported outcome value of `Cc1ccc(C(=O)Nc2nnc(C3=COCCO3)o2)cc1C` .
inactive

Return reported outcome; argument: `Cc1cccc(C)c1OCCN1CCOCC1`
inactive

Which outcome is reported for this compound? CC1CCCN(S(=O)(=O)c2ccc(C(=O)Nc3nnc(-c4ccncc4)o3)cc2)C1 (stereo not given)
inactive

---

Overview of recorded Potency for various molecules
System: 7G8
Assay: qHTS profiling for inhibitors of Plasmodium falciparum proliferation (AID 504749); also: nearly all actives have a fitted effect of over 60% in size; also: potency is read from the fitted curve at half-maximal effect
Details: P. falciparum in erythrocytes, SYBR Green DNA, 72 h; series mostly up to 28.7 µM
Procedure: NIH National Institute of Allergy and Infectious Diseases [NIAID] NIH Chemical Genomics Center [NCGC] […] Because mature erythrocytes lack DNA, only Plasmodium-derived DNA is detected. NCGC Assay Protocol Summary: The SYBR Green viability assay was adapted from a method described previously (Plouffe et al., 2008). […] The following morning, fluorescence intensity at 485(14) nm excitation and 535(25) nm emission wavelengths was measured on an EnVision (Perkin Elmer) plate reader. […]
Inconclusive results are not listed. Active and inactive are the calls of the source. The call rests on the fitted dose curve; in most records, active means well fitted inhibition curve with a large enough effect; inconclusive means small, poorly fitted or top-dose-only effect; inactive means flat fitted curve, though single readings scatter.

[[record]]
line_notation = "CC(C)(C)c1ccc(CN2CCN([C@H](c3ccccc3)c3ccc(Cl)cc3)CC2)cc1"
readout_name = "Potency"
meas_value = "3.55 µM (active)"


Continue with the molecule presented below.
Look at this molecule and give its reported Potency. `C=C(NC(=O)C(=C)NC(=O)c1csc(C2=N[C@@H]3c4csc(n4)[C@@H]4NC(=O)c5csc(n5)[C@@H]([C@](C)(O)[C@H](C)O)NC(=O)[C@@H]5CSC(=N5)/C(=C/C)NC(=O)[C@@H]([C@H](C)O)NC(=O)c5csc(n5)[C@]3(CC2)NC(=O)[C@@H](C)NC(=O)C(=C)NC(=O)[C@@H](C)NC(=O)[C@@H]([C@@H](C)CC)N[C@H]2C=Cc3c([C@H](C)O)cc(nc3[C@@H]2O)C(=O)O[C@H]4C)n1)C(N)=O`
3.16 µM (active)

---

system: TAB109; assay: qHTS profiling for inhibitors of Plasmodium falciparum proliferation (AID 504749); also: nearly all actives have a fitted effect of over 60% in size; details: P. falciparum in erythrocytes, SYBR Green DNA, 72 h; series mostly up to 28.7 µM
Inconclusive results are not listed. Calls of active or inactive are those of the source. Calls come from the whole dose curve; as a rule, active = well fitted inhibition curve with a large enough effect; inconclusive = small, poorly fitted or top-dose-only effect; inactive = flat fitted curve, though single readings scatter.
Tick one outcome: Y = active, N = inactive

Sample answers from the record:
[[record]]
molecule = "CC1(C)S[C@@H]2[C@H](NC(=O)Cc3ccccc3)C(=O)N2[C@@H]1C(=O)O"
class_assignment = "N"

[[record]]
molecule = "COc1cc2nc(N(C)CCCNC(=O)[C@@H]3CCCO3)nc(N)c2cc1OC"
class_assignment = "N"

[[record]]
molecule = "O=C(O)[C@@H](O)[C@@H](O)[C@H](O)[C@H](O)CO"
class_assignment = "Y"

[[record]]
molecule = "NS(=O)(=O)c1cc2c(cc1Cl)N[C@H](Cc1ccccc1)NS2(=O)=O"
class_assignment = "N"


Each molecule tested received a call. Report the one for `N[C@H](COP(=O)(O)O)C(=O)O` .
N

Any idea what this test logged for `C[C@]12CC[C@H]3c4ccc(O)cc4CC[C@@H]3[C@H]1CC[C@@H]2OC(=O)CCC1CCCC1` ?
N

---

test: Cell Viability - LYMP1-003 - Assay at 24 hr (AID 963); conditions: LYMP1-003 lymphoblastoid cell viability; series mostly up to 92.2 µM;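 also: plate controls were DMSO only for no effect and tetraoctylammonium bromide positive control for full effect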
The source made the active and inactive calls. Calls come from the whole dose curve; as a rule, active = well fitted cell-killing curve with a large enough effect; inconclusive = small, poorly fitted or top-dose-only effect; inactive = flat fitted curve, though single readings scatter.
Output constraint: value belongs to yes (1) = active, no (0) = inactive

Before answering, review these 5 worked examples.
[[record]]
compound = "O=C(O)c1ccc([N+](=O)[O-])cc1"
class_assignment = "no (0)"

[[record]]
compound = "O=CC(=O)c1ccccc1"
class_assignment = "no (0)"

[[record]]
compound = "c1ccc2c(c1)ccc1ccccc12"
class_assignment = "no (0)"

[[record]]
compound = "CCCCCCN"
class_assignment = "no (0)"

[[record]]
compound = "CCCCNCC"
class_assignment = "no (0)"


Tell me the recorded outcome of this test for `C[Si](C)(C)Cl` .
no (0)

Write down the call the test reported for this compound. Item: `CC(=O)CC(=O)Nc1ccccc1`
no (0)

// outcome(item) with item = CCCCC(CC)COCCCN (stereo not given)
no (0)

Which outcome did this test record for the compound `CCN(CC)c1ccc(N)cc1` ?
no (0)

What classification did `CCCCCCc1ccc(-c2ccc(C#N)cc2)cc1` end up with in this test?
no (0)

For `O=C1c2ccccc2C(=O)C1(O)O` , which call appears in the assay record?
no (0)

Any idea what this test logged for `Cc1ccc(N)cc1[N+](=O)[O-]` ?
no (0)

Would you mind telling me which call this test gave `Cc1cc2nc(N)sc2cc1C` ?
no (0)

Given CC(C)OCC1CO1 (stereo not given) , state the outcome it received in this test.
no (0)

Test call for this compound, please: `Oc1ccc(O)c2c(O)cccc12`
no (0)

Assay outcome for `CCNC(=S)NCC` : what was it?
no (0)

# outcome recorded in this test, key = `c1ccc(SCCSc2ccccc2)cc1`
no (0)

---

target: Glucocorticoid receptor (Homo sapiens) (UniProt P04150); test: GR-GFP Redistribution (AID 450); conditions: U2OS GR-GFP nuclear translocation, laser cytometry, 2 h; also: potency is read from the fitted curve at half-maximal effect
Sequence (P04150 whole entry, looked up): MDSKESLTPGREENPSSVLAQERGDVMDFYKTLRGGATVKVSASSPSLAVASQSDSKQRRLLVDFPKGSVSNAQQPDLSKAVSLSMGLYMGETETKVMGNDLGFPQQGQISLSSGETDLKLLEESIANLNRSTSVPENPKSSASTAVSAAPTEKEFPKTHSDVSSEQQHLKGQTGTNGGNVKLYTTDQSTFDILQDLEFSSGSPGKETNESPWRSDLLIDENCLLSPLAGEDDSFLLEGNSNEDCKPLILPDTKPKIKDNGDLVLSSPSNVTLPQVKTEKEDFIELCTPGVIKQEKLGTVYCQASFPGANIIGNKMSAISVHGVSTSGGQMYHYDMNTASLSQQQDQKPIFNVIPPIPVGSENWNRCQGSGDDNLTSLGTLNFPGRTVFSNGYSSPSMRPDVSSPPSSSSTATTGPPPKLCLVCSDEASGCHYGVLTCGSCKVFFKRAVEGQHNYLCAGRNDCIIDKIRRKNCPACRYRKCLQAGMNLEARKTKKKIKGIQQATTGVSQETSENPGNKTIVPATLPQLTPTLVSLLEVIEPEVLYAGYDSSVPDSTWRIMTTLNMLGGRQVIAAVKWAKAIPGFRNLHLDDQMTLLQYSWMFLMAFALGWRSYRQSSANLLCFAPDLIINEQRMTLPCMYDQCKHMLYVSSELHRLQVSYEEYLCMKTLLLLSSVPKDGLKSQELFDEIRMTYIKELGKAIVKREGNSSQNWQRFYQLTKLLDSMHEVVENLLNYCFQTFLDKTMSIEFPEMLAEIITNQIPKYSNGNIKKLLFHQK
Activity calls are given as the source filed them.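 The calls were made as follows: active = compounds whose dose series gives a full or clear partial fitted curve of increased nuclear translocation; inconclusive = weak partial curve or effect only at the top dose; inactive = no dose-dependent translocation response.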
Items are presented alongside their recorded Potency.

Please review the entries below; each comes with its answer.
[[record]]
line_notation = "O=C(O)C/C(=C\\c1ccco1)C(=O)O"
readout_name = "Potency"
meas_value = "> 46 µM (inactive)"

[[record]]
line_notation = "Cc1nc2cnc(N3CCOCC3)nc2n(Cc2cccs2)c1=O"
readout_name = "Potency"
meas_value = "> 9.22 µM (inactive)"

[[record]]
line_notation = "NCCc1nc(-c2nc(C(=O)O)cs2)cs1"
readout_name = "Potency"
meas_value = "> 46 µM (inactive)"

[[record]]
line_notation = "c1ccc(CN2CCC3(CC2)SSC2(CCN(Cc4ccccc4)CC2)SS3)cc1"
readout_name = "Potency"
meas_value = "> 46 µM (inactive)"

[[record]]
line_notation = "Cc1cc(Cc2c(C)c(C)c(Cc3cc(C)cc(C(C)(C)C)c3O)c(C)c2C)c(O)c(C(C)(C)C)c1"
readout_name = "Potency"
meas_value = "> 46 µM (inactive)"


Turning to the following compound.
API: value(readout=Potency, system=Glucocorticoid receptor (Homo sapiens) (UniProt P04150)) for record `C[C@@](O)(CNS(=O)(=O)c1ccccc1)c1ccccc1`
> 46 µM (inactive)

---

experiment: Cell Viability - Renal Proximal Tubule (AID 545); conditions: renal proximal tubule cells viability, primary cells of rat origin;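 also: cells exposed to compound for 40 hours; 0% = DMSO only and -100% = 100 µM tamoxifen; nearly all actives have a fitted effect of over 40% in size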
Records with an inconclusive call do not appear. Calls of active or inactive are those of the source. Calls follow the shape of the dose curve; as a rule, active = well fitted cell-killing curve with a large enough effect; inconclusive = small, poorly fitted or top-dose-only effect; inactive = flat fitted curve, though single readings scatter.
Please answer using one outcome listed in y = active, n = inactive

Solved entries (count: 5):
[[record]]
compound = "CCCCCCCCOc1ccc(C(=O)O)cc1"
class_assignment = "n"

[[record]]
compound = "c1cc2c3c(c1)ccc1cccc(c13)C2"
class_assignment = "n"

[[record]]
compound = "CC(=O)CC(=O)Nc1ccccc1"
class_assignment = "n"

[[record]]
compound = "O=C1OC(=O)c2ccccc21"
class_assignment = "n"

[[record]]
compound = "CCC(Cl)CC(Cl)C(Cl)C(Cl)C(Cl)C(C)Cl (stereo not drawn)"
class_assignment = "n"


State the result this test recorded for `Cc1ccc(C(=O)O)cc1[N+](=O)[O-]` .
n

Which outcome did this test record for the compound `Oc1cc(Cl)cc(Cl)c1Cl` ?
n

Dear all, I need the recorded test outcome for `C/C(Cl)=C/CCl` , thank you.
n

GET /call?item= `C=Cc1cccc(C)c1` returns the recorded outcome of this test.
n

Lab log entry: `O=[N+]([O-])c1ccc(F)cc1F` — outcome as called in the assay?
n

Please indicate how the test categorized `Cc1ccc(S(N)(=O)=O)cc1` .
n
